Entries and their inhibition at 1 µM
Tested On: Human PDE4D catalytic domain (Homo sapiens (Human), UniProt Q08499)
Sequence (Q08499 386-715): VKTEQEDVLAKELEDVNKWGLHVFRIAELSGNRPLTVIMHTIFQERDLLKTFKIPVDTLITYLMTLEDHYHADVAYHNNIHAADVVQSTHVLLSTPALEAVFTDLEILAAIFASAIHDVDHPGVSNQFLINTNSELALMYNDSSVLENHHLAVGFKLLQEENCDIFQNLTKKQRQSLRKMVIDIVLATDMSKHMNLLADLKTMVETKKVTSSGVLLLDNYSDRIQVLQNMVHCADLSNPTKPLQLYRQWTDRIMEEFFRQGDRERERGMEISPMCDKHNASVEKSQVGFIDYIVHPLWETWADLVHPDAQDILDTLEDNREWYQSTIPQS
Method Summary: Scintillation Proximity Assay (SPA), inhibition of PDE4D catalytic domain activity
Format: biochemical
Conditions: read-out: PDE4D enzyme activity inhibition rate %

| Compound | inhibition at 1 µM |
| --- | --- |
| COc1ccc2[nH]cc(CC[C@H]3c4cc(C(F)F)c(OC)cc4CCN3C=O)c2c1 [(S)-C71] | 81.8% |
| COc1cc2c(cc1OC1CCCC1)C(CCc1c[nH]c3ccc(Br)cc13)N(C=O)CC2 (stereo not shown) | 26.4% |
| COc1ccc2[nH]cc(CC[C@H]3c4cc(OC(F)F)c(OC)cc4CCN3C=O)c2c1 [(S)-C64] | 76.5% |
| COC(=O)CN1CCc2cc(OC)c(OC)cc2C1CCc1c[nH]c2ccccc12 (stereo not shown) | 39.1% |
| COC(=O)c1cc2c(cc1OC)CCN(C=O)[C@H]2CCc1c[nH]c2ccc(OC)cc12 [(S)-C66] | 88.4% |
| COC(=O)c1cc2c(cc1OC)[C@H](CCc1c[nH]c3ccc(OC)cc13)N(C=O)CC2 [(S)-C67] | 85.9% |
| COc1ccc2[nH]cc(CC[C@H]3c4cc(OC(F)(F)F)c(OC)cc4CCN3C=O)c2c1 [(S)-C63] | 75.3% |

---

Entries and their Cell survival rate/%
Test system: RAW 264.7 cells
Method Summary: Cytotoxicity on RAW 264.7 cells (CCK-8 method)
Format: cell-based, mouse
Conditions: RAW 264.7, 0.5 μM
Assay Readout: Cell survival rate/% (%)

| Compound | Unit Of Measure | Result Value |
| --- | --- | --- |
| CCOc1cc2c(cc1OC)CCN(C(=O)CS(C)(=O)=O)[C@H]2Cc1c[nH]c2ccccc12 [(S)-C15] | % | 107.3 |
| COCC(=O)N1CCc2cc(OC)c(OC)cc2[C@@H]1CCc1c[nH]c2ccccc12 [(S)-B11] | % | 110.9 |
| COc1cc2c(cc1OC)C(CCc1c[nH]c3ccccc13)N(CC(F)(F)F)CC2 (centres unmarked) [Compound B6] | % | 117.3 |
| CCOc1cc2c(cc1OC)CCN(C=O)[C@H]2Cc1c[nH]c2ccc(C)cc12 [(S)-C17] | % | 101.7 |
| COCC(=O)N1CCc2cc(OC)c(OC)cc2C1Cc1c[nH]c2ccccc12 (centres unmarked) [Compound C11] | % | 97.9 |
| CCOc1cc2c(cc1OC)CCN(C=O)C2CCc1c[nH]c2ccccc12 (centres unmarked) [Compound A4] | % | 100.6 |
| COc1cc2c(cc1OC)[C@H](Cc1c[nH]c3ccccc13)N(C(=O)CS(C)(=O)=O)CC2 [(S)-C13] | % | 111.2 |
| CCOc1cc2c(cc1OC)CCN(C=O)[C@H]2CCc1c[nH]c2ccc(OC)cc12 [(S)-C8] | % | 89.2 |

---

Tested on: RAW 264.7 cells
Method Summary: Cytotoxicity on RAW 264.7 cells (CCK-8 method)
Type: cell-based, mouse
Conditions: RAW 264.7, 50 μM
Entries and their Cell survival rate/%

| Compound | Tested On | Cell survival rate/% [%] |
| --- | --- | --- |
| CCOc1cc2c(cc1OC)CCN(C=O)[C@H]2Cc1c[nH]c2ccc(OC)cc12 [(S)-C18] | RAW 264.7 cells | 112.9 |
| COc1cc2c(cc1OCC1CC1)[C@H](CCc1c[nH]c3ccccc13)N(C=O)CC2 [(S)-A3] | RAW 264.7 cells | 77.3 |
| COc1cc2c(cc1OC1CCCC1)[C@H](CCc1c[nH]c3cc(C)ccc13)N(C=O)CC2 [(S)-C3] | RAW 264.7 cells | 89.2 |
| CCOc1cc2c(cc1OC)CCN(C(=O)CS(C)(=O)=O)[C@H]2Cc1c[nH]c2ccccc12 [(S)-C15] | RAW 264.7 cells | 101.2 |
| COc1cc2c(cc1OC)C(CCc1c[nH]c3ccccc13)N(CCS(C)(=O)=O)CC2 (stereo not shown) | RAW 264.7 cells | 100.5 |
| CCOc1cc2c(cc1OC)CCN(C(=O)COC)[C@H]2CCc1c[nH]c2ccccc12 [(S)-B12] | RAW 264.7 cells | 75.2 |
| COc1cc2c(cc1OCC1CC1)C(CCc1c[nH]c3ccccc13)N(C=O)CC2 (stereo not shown) | RAW 264.7 cells | 94 |
| COc1cc2c(cc1OC)[C@H](CCc1c[nH]c3ccccc13)N(C(=O)C(F)(F)F)CC2 [(S)-B10] | RAW 264.7 cells | 93.8 |
| CCOc1cc2c(cc1OC)CCN(C=O)[C@H]2CCc1c[nH]c2cc(C)ccc12 [(S)-C7] | RAW 264.7 cells | 96.1 |
| COc1cc2c(cc1OC)C(CCc1c[nH]c3ccccc13)N(C(=O)c1ccncc1)CC2 (stereo not shown) | RAW 264.7 cells | 78.8 |
| COc1cc2c(cc1OC)C(CCc1c[nH]c3ccccc13)N(C(=O)C1CCOCC1)CC2 (stereo not shown) | RAW 264.7 cells | 79.6 |
| COCC(=O)N1CCc2cc(OC)c(OC)cc2[C@@H]1CCc1c[nH]c2ccccc12 [(S)-B11] | RAW 264.7 cells | 102.2 |
| COc1cc2c(cc1OC1CCCC1)C(CCc1c[nH]c3ccc(C)cc13)N(C=O)CC2 (stereo not shown) | RAW 264.7 cells | 62.7 |
| COc1cc2c(cc1OC)[C@H](CCc1c[nH]c3cc(C)ccc13)N(C=O)CC2 [(S)-C5] | RAW 264.7 cells | 93.4 |
| CCOc1cc2c(cc1OC)CCN(C=O)[C@H]2CCc1c[nH]c2ccccc12 [(S)-A4] | RAW 264.7 cells | 98.1 |
| CCOc1cc2c(cc1OC)CCN(C(=O)COC)[C@H]2Cc1c[nH]c2ccccc12 [(S)-C16] | RAW 264.7 cells | 113.1 |
| CCOc1cc2c(cc1OC)CCN(C=O)[C@H]2CCc1c[nH]c2ccc(OC)cc12 [(S)-C8] | RAW 264.7 cells | 93.8 |
| COc1cc2c(cc1OC)[C@H](Cc1c[nH]c3ccccc13)N(C(=O)CS(C)(=O)=O)CC2 [(S)-C13] | RAW 264.7 cells | 101.7 |
| CCOc1cc2c(cc1OC)CCN(C=O)[C@H]2Cc1c[nH]c2ccc(C)cc12 [(S)-C17] | RAW 264.7 cells | 103.9 |
| CCOc1cc2c(cc1OC)CCN(CCS(C)(=O)=O)[C@H]2Cc1c[nH]c2ccccc12 [(S)-C14] | RAW 264.7 cells | 97.3 |
| CCOc1cc2c(cc1OC)CCN(C=O)[C@H]2Cc1c[nH]c2ccccc12 [(S)-C10] | RAW 264.7 cells | 104.1 |
| COCC(=O)N1CCc2cc(OC)c(OC)cc2C1CCc1c[nH]c2ccccc12 (stereo not shown) | RAW 264.7 cells | 71.5 |
| COc1cc2c(cc1OC)C(Cc1c[nH]c3ccccc13)N(CCS(C)(=O)=O)CC2 (stereo not shown) | RAW 264.7 cells | 103.8 |
| COc1cc2c(cc1OC1CCCC1)C(CCc1c[nH]c3ccc(Br)cc13)N(C=O)CC2 (stereo not shown) | RAW 264.7 cells | 110.5 |
| COCCN1CCc2cc(OC)c(OC)cc2C1CCc1c[nH]c2ccccc12 (stereo not shown) | RAW 264.7 cells | 71.4 |
| COc1cc2c(cc1OC)C(CCc1c[nH]c3ccccc13)N(CC(F)(F)F)CC2 (stereo not shown) | RAW 264.7 cells | 95.3 |
| CCOc1cc2c(cc1OC)CCN(C=O)C2Cc1c[nH]c2ccccc12 (stereo not shown) | RAW 264.7 cells | 94 |
| COc1cc2c(cc1OC1CCCC1)C(CCc1c[nH]c3ccccc13)N(C=O)CC2 (stereo not shown) | RAW 264.7 cells | 55.1 |

---

Method Summary: Rat pharmacokinetic test
Format: in vivo
Conditions: male, plasma, po, gavage, 20 mg/kg
Entries and their Tmax
Assay Readout: Tmax (h)

| Compound | Assay Readout | Result Value |
| --- | --- | --- |
| CCOc1cc2c(cc1OC)CCN(C=O)[C@H]2CCc1c[nH]c2ccc(OC)cc12 [(S)-C8] | Tmax | 1.33 |
| CCOc1cc2c(cc1OC)CCN(C=O)[C@H]2CCc1c[nH]c2cc(C)ccc12 [(S)-C7] | Tmax | 1 |

---

Method Summary: Beagle dog pharmacokinetic test
Assay type: in vivo
Conditions: male, plasma, po, gavage, 10 mg/kg
Assay Readout: Tmax (min)

| Molecule | Result Value |
| --- | --- |
| CCOc1cc2c(cc1OC)CCN(C=O)[C@H]2CCc1c[nH]c2ccc(OC)cc12 [(S)-C8] | 30 |

Reference source for all entries: patent US12145923B2
